For each of the molecules below, state its IC50.
Assay system: UniProt:P08684
Sequence (P08684 2-503): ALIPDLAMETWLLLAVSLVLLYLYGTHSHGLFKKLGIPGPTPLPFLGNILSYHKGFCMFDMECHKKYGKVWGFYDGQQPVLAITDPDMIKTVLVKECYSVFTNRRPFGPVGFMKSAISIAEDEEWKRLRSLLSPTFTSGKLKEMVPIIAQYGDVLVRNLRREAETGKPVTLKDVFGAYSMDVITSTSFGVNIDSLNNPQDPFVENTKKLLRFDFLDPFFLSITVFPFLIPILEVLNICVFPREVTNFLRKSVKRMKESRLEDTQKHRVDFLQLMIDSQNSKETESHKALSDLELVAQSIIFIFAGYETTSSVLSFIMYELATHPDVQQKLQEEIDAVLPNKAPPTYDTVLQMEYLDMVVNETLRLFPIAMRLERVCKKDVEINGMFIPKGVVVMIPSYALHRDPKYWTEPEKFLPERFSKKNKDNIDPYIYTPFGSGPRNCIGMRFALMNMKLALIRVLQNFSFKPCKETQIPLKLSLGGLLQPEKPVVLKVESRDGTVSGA
Assay comment: IC50 vs CYP3A by inhibition of lopinavir metabolism in human liver microsomes
Format: biochemical
Design: 0.01 mg/mL protein human liver microsomes (BD Gentest); tissue BD Gentest; host or cells: human liver microsomes
Test context: 1.5 μM lopinavir, 0.01 mg/mL human liver microsomes, 8 min at 37° C.; read-out: CYP IC50 (nM) 3A4 (LPV)
Note: unit nM is implicit; provide only the numeric part.

[in] Report measured IC50 on UniProt:P08684; entry: O=S(=O)(NCc1ccccc1-c1cncn1CCc1ccc(F)cc1)c1cnc(N2CCN3C[C@H](O)C[C@H]3C2)s1
[out] 16.4

[in] Report measured IC50 on UniProt:P08684; entry: CC(C)NC(=O)N1CCCC1c1cccc(-c2cncn2CCc2ccc(F)cc2)c1 (stereo not shown)
[out] 14.2

[in] Report measured IC50 on UniProt:P08684; entry: CN1CCN(c2ncc(S(=O)(=O)N3CCc4c(cccc4-c4cncn4CCc4ccc(F)cc4)C3)s2)CC1
[out] 1.9

[in] Report measured IC50 on UniProt:P08684; entry: CN(C)c1ccc(S(=O)(=O)N2CCCC2c2ccccc2-c2cncn2CCc2ccc(F)cc2)cn1 (single isomer, unassigned) [Compound 28b]
[out] 10.1

====

For each of the compounds below, state its IC50.
Assay system: UniProt P08684
Assay comment: IC50 vs CYP3A by inhibition of lopinavir metabolism in human liver microsomes
Assay type: biochemical
Parameters: 0.01 mg/mL protein human liver microsomes (BD Gentest); tissue BD Gentest; host or cells: human liver microsomes
Test context: 1.5 μM lopinavir, 0.01 mg/mL human liver microsomes, 8 min at 37° C.; read-out: CYP IC50 (nM) 3A4 (LPV)
Note: unit nM is implicit; provide only the numeric part.

[in] Report measured IC50 on UniProt P08684; entry: CC(=O)Nc1ncc(S(=O)(=O)NCc2ccc(-c3cncn3CCc3ccc(F)cc3)cc2)s1
[out] 5

[in] Report measured IC50 on UniProt P08684; entry: O=C(c1ccc(N2CCOCC2)nc1)N1CCCC1c1ccccc1-c1cncn1CCc1ccc(F)cc1 (single isomer, unassigned) [Compound 43a]
[out] 35.2

[in] Report measured IC50 on UniProt P08684; entry: CN(C)c1ccc(S(=O)(=O)N2CCc3c(cccc3-c3cncn3CCc3ccc(F)cc3)C2)cn1
[out] 1.4

[in] Report measured IC50 on UniProt P08684; entry: CS(=O)(=O)N1CCCC1c1ccccc1-c1cncn1CCc1ccc(F)cc1 (single isomer, unassigned) [Compound 23a]
[out] 58.5

[in] Report measured IC50 on UniProt P08684; entry: O=C(c1cccnc1)N1CCCC1c1cccc(-c2cncn2CCc2ccc(F)cc2)c1 (single isomer, unassigned) [Compound 48a]
[out] 32.3

[in] Report measured IC50 on UniProt P08684; entry: O=S(=O)(c1cnc(N2CCN3C[C@H](O)C[C@H]3C2)s1)N1CCCC1c1ccccc1-c1cncn1CCc1ccc(F)cc1 (single isomer, unassigned) [Compound 22a]
[out] 1.4

[in] Report measured IC50 on UniProt P08684; entry: Cn1cncc1-c1ccccc1C1CCCN1S(=O)(=O)c1cnc(N2CCN3C[C@H](O)C[C@H]3C2)s1 (stereo partly shown)
[out] 29.5

These measurements were taken from patent US9975888B2.
